Target: Serine/threonine-protein kinase 4 (Homo sapiens, UniProt Q13043); note: in the data inactive means no Kd found up to 30 µM
Sequence (Q13043 whole entry): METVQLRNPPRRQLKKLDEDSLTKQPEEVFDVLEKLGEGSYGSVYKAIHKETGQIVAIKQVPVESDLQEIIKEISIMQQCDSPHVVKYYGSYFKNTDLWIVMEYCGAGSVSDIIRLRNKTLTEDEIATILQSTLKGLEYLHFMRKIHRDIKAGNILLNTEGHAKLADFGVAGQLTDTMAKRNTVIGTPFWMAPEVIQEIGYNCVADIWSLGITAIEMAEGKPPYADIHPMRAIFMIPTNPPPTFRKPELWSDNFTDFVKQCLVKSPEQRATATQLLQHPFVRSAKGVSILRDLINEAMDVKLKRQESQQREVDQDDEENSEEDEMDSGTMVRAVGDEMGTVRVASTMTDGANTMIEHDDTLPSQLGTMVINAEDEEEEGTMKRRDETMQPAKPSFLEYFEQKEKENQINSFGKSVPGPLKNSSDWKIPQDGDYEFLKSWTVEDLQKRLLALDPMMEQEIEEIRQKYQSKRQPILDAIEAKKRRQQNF
Activity calls are given as the source filed them.
recorded-endpoint: Kd

Worked examples, 2 compounds total:
CN1CCC(CNc2ccc3ncc(-c4cccc(OC(F)(F)F)c4)n3n2)CC1 :: > 30 µM (inactive)
N[C@@H]1CCCN(c2c(/C=C3\SC(=O)NC3=O)cccc2-c2ccccc2)C1 :: > 30 µM (inactive)

Okay, next one:
In plain terms, CCn1c(=O)c(-c2cc[nH]n2)cc2c(C)nc(N)nc21 has a documented Kd of > 30 µM (inactive)

---

Target: Mitogen-activated protein kinase 8 (Homo sapiens, UniProt P45983); note: in the data inactive means no Kd found up to 30 µM
Sequence (P45983 whole entry): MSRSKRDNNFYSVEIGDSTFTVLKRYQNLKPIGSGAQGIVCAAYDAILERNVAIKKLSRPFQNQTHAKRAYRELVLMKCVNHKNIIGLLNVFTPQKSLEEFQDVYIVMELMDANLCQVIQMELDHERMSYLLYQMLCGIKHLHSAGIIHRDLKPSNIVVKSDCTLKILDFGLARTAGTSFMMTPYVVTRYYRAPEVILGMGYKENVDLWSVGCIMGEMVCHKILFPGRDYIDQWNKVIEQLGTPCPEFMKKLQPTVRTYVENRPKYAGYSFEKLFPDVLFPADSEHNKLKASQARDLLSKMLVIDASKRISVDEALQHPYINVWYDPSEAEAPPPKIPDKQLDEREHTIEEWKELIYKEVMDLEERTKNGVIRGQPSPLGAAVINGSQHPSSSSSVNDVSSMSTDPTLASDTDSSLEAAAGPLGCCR
Calls of active or inactive are those of the source.
Output constraint: value belongs to T (active), F (inactive)

Consider the worked cases shown below.
Cc1cc(-c2cc(O)ccc2Cl)cc2nnc(Nc3ccc(OCCN4CCCC4)cc3)nc12 :: F
CNC(=O)CN1CCC(Oc2cc3c(Nc4cccc(Cl)c4F)ncnc3cc2OC)CC1 :: F
COc1cc(N2CCC(N3CCN(C)CC3)CC2)ccc1Nc1ncnc(Nc2ccccc2S(=O)(=O)C(C)C)n1 :: F
CC(C)Nc1cc(-c2c[nH]c(C(=O)N[C@H](CO)c3cccc(Cl)c3)c2)c(Cl)cn1 :: F

Prompt: Entry CN(C)C(=O)c1cc2cnc(Nc3ccc(N4CCNCC4)cn3)nc2n1C1CCCC1 : call = ?
Completion: F

Prompt: Entry CN1N=C(N)c2cn([C@@H]3O[C@H](COP(=O)(O)O)[C@@H](O)[C@H]3O)c3ncnc1c23 [TRICIRIBINE PHOSPHATE] : call = ?
Completion: F

Prompt: Entry Cc1ccc(-n2nc(C(C)(C)C)cc2NC(=O)NCc2cc(F)ccc2Oc2ccc3c(cnn3CCO)c2)cc1 : call = ?
Completion: F

Prompt: Entry Cn1cc(-c2ccc3nnc(C(F)(F)c4ccc5ncccc5c4)n3n2)cn1 : call = ?
Completion: F

Prompt: Entry COc1cc2nccc(Oc3ccc(NC(=O)Nc4cc(C)on4)c(Cl)c3)c2cc1OC : call = ?
Completion: F

Prompt: Entry COC(=O)N[C@@H](C)CNc1nccc(-c2cn(C(C)C)nc2-c2cc(Cl)cc(NS(C)(=O)=O)c2F)n1 : call = ?
Completion: T

Prompt: Entry CCn1c(=O)c(-c2cc[nH]n2)cc2c(C)nc(N)nc21 : call = ?
Completion: F

Prompt: Entry CNS(=O)(=O)Nc1nccc(Cc2c(C)c3ccc(Oc4ncccn4)cc3oc2=O)c1F : call = ?
Completion: F

Prompt: Entry COCCNCc1ccc(-c2cc3nccc(Oc4ccc(NC(=S)NC(=O)Cc5ccc(F)cc5)cc4F)c3s2)nc1 : call = ?
Completion: F

Prompt: Entry Cc1ccc(S(=O)(=O)Nc2nc3ccccc3nc2Nc2ccc3nsnc3c2)cc1 : call = ?
Completion: F

Prompt: Entry Cc1ccc(NC(=O)c2ccc(CN3CC[C@H](N(C)C)C3)c(C(F)(F)F)c2)cc1Nc1nccc(-c2cncnc2)n1 : call = ?
Completion: F

Prompt: Entry N[C@@H]1CCCN(c2c(/C=C3\SC(=O)NC3=O)cccc2-c2ccccc2)C1 : call = ?
Completion: F

---

Target: Serine/threonine-protein kinase NLK (Homo sapiens, UniProt Q9UBE8); note: in the data inactive means no Kd found up to 30 µM
Sequence (Q9UBE8 whole entry): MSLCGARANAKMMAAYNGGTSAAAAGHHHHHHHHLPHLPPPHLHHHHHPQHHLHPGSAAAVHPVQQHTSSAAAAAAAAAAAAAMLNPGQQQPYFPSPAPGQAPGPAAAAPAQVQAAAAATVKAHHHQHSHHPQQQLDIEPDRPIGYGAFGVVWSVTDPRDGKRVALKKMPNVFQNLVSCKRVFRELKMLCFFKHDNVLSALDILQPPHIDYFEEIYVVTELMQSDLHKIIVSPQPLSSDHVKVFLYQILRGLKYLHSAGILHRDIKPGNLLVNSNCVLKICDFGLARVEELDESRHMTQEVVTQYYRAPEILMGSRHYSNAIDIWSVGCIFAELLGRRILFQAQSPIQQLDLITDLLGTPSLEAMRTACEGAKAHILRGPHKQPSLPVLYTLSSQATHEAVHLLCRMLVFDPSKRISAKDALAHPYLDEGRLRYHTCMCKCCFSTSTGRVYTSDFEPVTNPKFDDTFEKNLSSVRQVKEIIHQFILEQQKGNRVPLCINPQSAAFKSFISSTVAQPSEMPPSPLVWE
The source made the active and inactive calls.
Output constraint: value belongs to active, inactive

Cc1cc(-c2cc(O)ccc2Cl)cc2nnc(Nc3ccc(OCCN4CCCC4)cc3)nc12 :: active
Cc1c(F)cc(C(=O)NC2CC2)cc1-c1ccc(C(=O)NCC(C)(C)C)cn1 :: inactive
CC[C@H](Nc1ncnc2[nH]cnc12)c1nc2cccc(F)c2c(=O)n1-c1ccccc1 :: inactive
Cc1cc2c(F)c(Oc3ncnn4cc(OC[C@@H](C)OC(=O)[C@H](C)N)c(C)c34)ccc2[nH]1 [BRIVANIB ALANINATE] :: inactive
C1=C/COCc2cc(ccc2OCCN2CCCC2)Nc2nccc(n2)-c2cccc(c2)COC/1 :: inactive

Prompt: Entry CNC(=O)CN1CCC(Oc2cc3c(Nc4cccc(Cl)c4F)ncnc3cc2OC)CC1 : call = ?
Completion: inactive

Prompt: Entry COc1ccc(-c2ccc3c(N4CCOC[C@@H]4C)nc(N4CCOC[C@@H]4C)nc3n2)cc1CO : call = ?
Completion: inactive

Prompt: Entry CCCS(=O)(=O)Nc1ccc(F)c(C(=O)c2c[nH]c3ncc(-c4ccc(Cl)cc4)cc23)c1F : call = ?
Completion: inactive

Prompt: Entry Cn1ncc(Cl)c1-c1cc(C(=O)N[C@H](CN)Cc2cccc(F)c2)sc1Cl : call = ?
Completion: inactive

Prompt: Entry CCc1cnn2c(NCc3ccc[n+]([O-])c3)cc(N3CCCC[C@H]3CCO)nc12 : call = ?
Completion: inactive

---

Measured Kd (Casein kinase I isoform delta (Homo sapiens))
Active and inactive are the calls of the source.

Worked examples, 2 compounds total:
CNS(=O)(=O)Nc1nccc(Cc2c(C)c3ccc(Oc4ncccn4)cc3oc2=O)c1F :: > 30 µM (inactive)
COc1ccc(-c2ccc3c(N4CCOC[C@@H]4C)nc(N4CCOC[C@@H]4C)nc3n2)cc1CO :: > 30 µM (inactive)

Kd on Casein kinase I isoform delta (Homo sapiens) for Cn1cc(-c2ccc3nnc(C(F)(F)c4ccc5ncccc5c4)n3n2)cn1 is > 30 µM (inactive)

Kd on Casein kinase I isoform delta (Homo sapiens) for Cc1c(F)cc(C(=O)NC2CC2)cc1-c1ccc(C(=O)NCC(C)(C)C)cn1 is > 30 µM (inactive)

---

This section presents compounds with their documented Kd values.
Molecular target: Ephrin type-B receptor 4 (Homo sapiens, UniProt P54760); note: in the data inactive means no Kd found up to 30 µM
Sequence (P54760 whole entry): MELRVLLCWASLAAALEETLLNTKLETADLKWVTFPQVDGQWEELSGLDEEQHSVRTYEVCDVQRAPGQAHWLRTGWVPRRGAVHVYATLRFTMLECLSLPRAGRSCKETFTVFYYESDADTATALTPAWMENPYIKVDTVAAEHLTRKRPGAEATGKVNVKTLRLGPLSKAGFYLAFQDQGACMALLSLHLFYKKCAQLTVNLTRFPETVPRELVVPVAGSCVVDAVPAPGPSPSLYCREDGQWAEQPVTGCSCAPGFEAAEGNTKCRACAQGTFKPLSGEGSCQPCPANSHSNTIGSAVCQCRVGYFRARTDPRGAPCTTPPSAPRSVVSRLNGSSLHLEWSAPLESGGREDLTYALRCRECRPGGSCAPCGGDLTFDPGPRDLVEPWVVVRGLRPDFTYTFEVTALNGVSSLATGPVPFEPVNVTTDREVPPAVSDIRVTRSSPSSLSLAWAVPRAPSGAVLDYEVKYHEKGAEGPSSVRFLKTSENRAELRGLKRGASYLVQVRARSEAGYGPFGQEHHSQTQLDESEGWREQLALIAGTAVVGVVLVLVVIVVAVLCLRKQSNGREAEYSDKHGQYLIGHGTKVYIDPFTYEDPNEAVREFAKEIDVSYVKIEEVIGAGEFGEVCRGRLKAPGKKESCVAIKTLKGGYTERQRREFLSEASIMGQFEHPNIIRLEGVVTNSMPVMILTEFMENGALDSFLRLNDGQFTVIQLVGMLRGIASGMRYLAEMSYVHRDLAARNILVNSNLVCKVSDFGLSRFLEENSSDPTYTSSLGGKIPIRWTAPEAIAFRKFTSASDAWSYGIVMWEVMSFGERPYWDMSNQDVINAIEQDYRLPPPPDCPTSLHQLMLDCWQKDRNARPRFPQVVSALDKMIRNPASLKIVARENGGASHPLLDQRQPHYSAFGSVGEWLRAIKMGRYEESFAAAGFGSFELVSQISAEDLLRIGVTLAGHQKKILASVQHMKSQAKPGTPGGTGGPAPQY
Calls of active or inactive are those of the source.

Worked examples, 4 compounds total:
COc1cc2nccc(Oc3ccc(NC(=O)NC4CC4)c(Cl)c3)c2cc1C(N)=O [LENVATINIB] :: > 30 µM (inactive)
Cc1ccc(NC(=O)c2ccc(CN3CC[C@H](N(C)C)C3)c(C(F)(F)F)c2)cc1Nc1nccc(-c2cncnc2)n1 [BAFETINIB] :: 1.3 µM (active)
Cc1c(F)cc(C(=O)NC2CC2)cc1-c1ccc(C(=O)NCC(C)(C)C)cn1 [LOSMAPIMOD] :: > 30 µM (inactive)
CNC(=O)CN1CCC(Oc2cc3c(Nc4cccc(Cl)c4F)ncnc3cc2OC)CC1 [SAPITINIB] :: 0.556 µM (active)

Kd on Ephrin type-B receptor 4 (Homo sapiens, UniProt P54760) for COCCNCc1ccc(-c2cc3nccc(Oc4ccc(NC(=S)NC(=O)Cc5ccc(F)cc5)cc4F)c3s2)nc1 [GLESATINIB] is > 30 µM (inactive)

---

This section presents compounds with their documented Kd values.
Protein target, amino acids: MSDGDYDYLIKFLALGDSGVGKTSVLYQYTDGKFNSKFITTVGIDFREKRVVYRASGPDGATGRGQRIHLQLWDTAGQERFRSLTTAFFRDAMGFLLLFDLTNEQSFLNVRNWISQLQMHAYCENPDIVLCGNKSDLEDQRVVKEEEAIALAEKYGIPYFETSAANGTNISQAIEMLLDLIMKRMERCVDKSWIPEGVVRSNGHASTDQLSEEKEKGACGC
Calls of active or inactive are those of the source.

Worked examples, 2 compounds total:
C[C@@H](Nc1cc(F)cc(F)c1)c1cc(C(=O)N(C)C)cc2c(=O)cc(N3CCOCC3)oc12 :: > 30 µM (inactive)
O=C(c1ccc(F)c(F)c1Nc1ccc(I)cc1F)N1CC(O)([C@@H]2CCCCN2)C1 :: > 30 µM (inactive)

In plain terms, Cc1cn(-c2cc(NC(=O)c3ccc(C)c(Nc4nccc(-c5cccnc5)n4)c3)cc(C(F)(F)F)c2)cn1 has a documented Kd of > 30 µM (inactive)

In plain terms, CN1N=C(N)c2cn([C@@H]3O[C@H](COP(=O)(O)O)[C@@H](O)[C@H]3O)c3ncnc1c23 [TRICIRIBINE PHOSPHATE] has a documented Kd of > 30 µM (inactive)

---

Biological target: Epithelial discoidin domain-containing receptor 1 (Homo sapiens, UniProt Q08345); note: in the data inactive means no Kd found up to 30 µM
Sequence (Q08345 whole entry, the tested form may be a part): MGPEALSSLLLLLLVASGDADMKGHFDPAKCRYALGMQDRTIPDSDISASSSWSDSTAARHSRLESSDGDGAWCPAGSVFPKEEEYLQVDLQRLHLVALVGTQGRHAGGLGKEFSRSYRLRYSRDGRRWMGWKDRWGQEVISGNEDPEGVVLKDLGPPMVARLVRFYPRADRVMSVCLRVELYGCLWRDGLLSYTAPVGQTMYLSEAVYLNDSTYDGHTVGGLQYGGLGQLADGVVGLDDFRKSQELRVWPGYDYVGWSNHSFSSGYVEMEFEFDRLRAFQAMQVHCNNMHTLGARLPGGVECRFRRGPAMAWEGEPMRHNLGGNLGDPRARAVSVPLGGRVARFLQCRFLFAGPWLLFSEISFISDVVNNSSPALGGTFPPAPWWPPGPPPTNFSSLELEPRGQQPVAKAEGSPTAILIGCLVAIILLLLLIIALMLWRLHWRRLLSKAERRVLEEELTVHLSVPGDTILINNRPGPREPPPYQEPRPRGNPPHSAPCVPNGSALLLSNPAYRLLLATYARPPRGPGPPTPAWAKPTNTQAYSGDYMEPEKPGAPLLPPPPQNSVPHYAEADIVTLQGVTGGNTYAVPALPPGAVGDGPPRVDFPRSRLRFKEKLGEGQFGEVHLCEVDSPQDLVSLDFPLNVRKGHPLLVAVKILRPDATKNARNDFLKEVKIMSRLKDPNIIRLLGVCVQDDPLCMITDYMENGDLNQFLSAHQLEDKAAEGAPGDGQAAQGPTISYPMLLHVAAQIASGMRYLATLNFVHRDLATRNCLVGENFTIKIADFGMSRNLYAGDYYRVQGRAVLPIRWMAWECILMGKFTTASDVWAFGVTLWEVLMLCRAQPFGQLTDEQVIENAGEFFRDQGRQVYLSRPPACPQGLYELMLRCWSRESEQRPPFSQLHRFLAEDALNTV
Active and inactive are the calls of the source.
Output constraint: value belongs to active, inactive

Consider the worked cases shown below.
COC(=O)[C@@]1(O)C[C@H]2O[C@]1(C)n1c3ccccc3c3c4c(c5c6ccccc6n2c5c31)C(=O)NC4 [K-252A] :: inactive
C[C@@H]1CN(Cc2ccc(F)cc2)[C@@H](C)CN1C(=O)c1cc2c(C(=O)C(=O)N(C)C)cn(C)c2cc1Cl :: inactive
CCN1CCN(Cc2ccc(-c3cc4c(N[C@H](C)c5ccccc5)ncnc4[nH]3)cc2)CC1 :: active
CN1CCC(CNc2ccc3ncc(-c4cccc(OC(F)(F)F)c4)n3n2)CC1 :: inactive
CNC(=O)c1ccc(C)c(-n2c(C)cc(OCc3ccc(F)cc3F)c(Br)c2=O)c1 :: inactive
CNC(=O)c1ccc(-c2cnc3ncc(Cc4ccc5ncccc5c4)n3n2)cc1F :: inactive
CNS(=O)(=O)Nc1nccc(Cc2c(C)c3ccc(Oc4ncccn4)cc3oc2=O)c1F :: inactive
O=C(Nc1cccc(Cl)c1)Nc1ncc(CCNc2ncnc3ccsc23)s1 :: active

Prompt: Entry O=C(Nc1ccc(-c2ccnc(Nc3ccc(N4CCOCC4)cc3)n2)cc1)C1CCCN1 (configuration not stated) : call = ?
Completion: inactive

Prompt: Entry CN1CC[C@@H](c2c(O)cc(O)c3c(=O)cc(-c4ccccc4Cl)oc23)[C@@H]1CO : call = ?
Completion: inactive
